- ASSAYED TARGET: TNKS1 (Homo sapiens, UniProt O95271)
- PROTOCOL DESCRIPTION: TNKS1/PARP Biochemical Assay (TNKS1)
MEASURED PROPERTY: IC50

Prompt line: Give reported IC50 value for Cc1cccc2c(=O)[nH]c(-c3ccc(CN4CC(O)C4)c(F)c3)cc12
Response line: < 50 nM

Prompt line: Give IC50 for Cc1cccc2c(=O)[nH]c(-c3ccc(N4CCN(CCN(C)C)CC4)nc3)cc12
Response line: < 20 nM

Prompt line: Return IC50 for the following compound: Cc1cccc2c(=O)[nH]c(-c3ccc(Cn4ccnc4)cc3)cc12
Response line: < 20 nM

Prompt line: Assign IC50 to the following record: Cc1cccc2c(=O)[nH]c(-c3ccc(C(=O)N(C)C4CCCN(C)C4)cc3)cc12 (stereo not drawn)
Response line: < 20 nM

Prompt line: Give IC50 for Cc1cccc2c(=O)[nH]c(-c3ccc(N4CCNCC4)nc3)cc12
Response line: < 20 nM

Prompt line: Identify the reported IC50 for the following entry. Cc1cccc2c(=O)[nH]c(-c3ccc(N(C)C)cc3)cc12
Response line: < 20 nM

Prompt line: Report measured IC50; entry is CN1CCN(c2ncc(-c3cc4ccccc4c(=O)[nH]3)cn2)CC1 [REF-1, reference compound]
Response line: 33 nM

Prompt line: State its IC50 for this compound: Cc1cc(F)cc2c(=O)[nH]c(-c3ccc(C(=O)N(C)C4CN(C)C4)cc3)cc12
Response line: < 50 nM

Prompt line: Answer with the recorded IC50 for the compound listed here: CN(CC1CCN(C(=O)OC(C)(C)C)CC1)C(=O)c1ccc(-c2cc3c(Cl)cccc3c(=O)[nH]2)cc1
Response line: < 500 nM

Prompt line: Fill in reported IC50 for this entry: CN1CCC(CN(C)S(=O)(=O)c2ccc(-c3cc4c(Cl)cccc4c(=O)[nH]3)cc2)CC1
Response line: < 50 nM

Prompt line: Please look at this compound and report its IC50: Cc1cccc2c(=O)[nH]c(-c3ccc(Cn4cncn4)cc3)cc12
Response line: < 50 nM

Prompt line: Tell me measured IC50 for Cc1cccc2c(=O)[nH]c(-c3ccc(OCCN(C)C)cc3)cc12 please.
Response line: 16 nM

Prompt line: // Input: CN(CC1CCN(C(=O)OC(C)(C)C)CC1)S(=O)(=O)c1ccc(-c2cc3c(Cl)cccc3c(=O)[nH]2)cc1 . Output its IC50 only.
Response line: < 500 nM

Prompt line: Supply measured IC50 of Cc1cccc2c(=O)[nH]c(-c3ccc(CN4C[C@@H]5C[C@H]4CN5)cc3)cc12 in your reply.
Response line: < 20 nM

Prompt line: Tell me IC50 reported for Cc1cccc2c(=O)[nH]c(-c3ccc(C(=O)N(C)C4CN(C)C4)cc3)cc12
Response line: < 20 nM

Prompt line: Give reported IC50 value for Cc1cccc2c(=O)[nH]c(-c3ccc(CN4CCN(C5CC5)CC4)cc3)cc12
Response line: < 50 nM

Prompt line: Give IC50 for the following compound: Cc1cccc2c(=O)[nH]c(-c3ccc(CN4CCC5(CCNC5)C4)nc3)cc12 (stereo not drawn)
Response line: < 50 nM

Prompt line: Using the record for CN1CCN(C(=O)c2ccc(-c3cc4c(F)cc(F)cc4c(=O)[nH]3)cc2)CC1 , state its measured IC50.
Response line: < 20 nM
